SYSTEM: anti-ALFA VHH
Sequence (VHH, as listed by the source): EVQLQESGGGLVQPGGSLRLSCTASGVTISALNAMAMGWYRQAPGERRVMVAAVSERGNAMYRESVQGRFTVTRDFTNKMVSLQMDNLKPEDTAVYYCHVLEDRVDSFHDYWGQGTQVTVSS
ASSAY: dose-response curve fit (log(agonist) vs. response, variable slope), FIG. 2; assay format not described
Bridge positions count the residues as written; N and C are the ends. Ends that are not written are not given here.
The threshold is inclusive: Bottom of exactly 0.1 counts as class 1; values below receive class 0.

Illustrative cases are given below, each with its answer.
Does Bottom meet or surpass 0.1 for Ac-SRLEEELKRRLTE-NH2 (lactam 5-8; SMILES CC(=O)N[C@@H](CO)C(=O)N[C@@H](CCCNC(=N)N)C(=O)N[C@@H](CC(C)C)C(=O)N[C@@H](CCC(=O)O)C(=O)N[C@H]1CCC(=O)NCCCC[C@@H](C(=O)N[C@@H](CCCNC(=N)N)C(=O)N[C@@H](CCCNC(=N)N)C(=O)N[C@@H](CC(C)C)C(=O)N[C@H](C(=O)N[C@@H](CCC(=O)O)C(N)=O)[C@@H](C)O)NC(=O)[C@H](CC(C)C)NC(=O)[C@H](CCC(=O)O)NC1=O, Cyclic ALFA tag; also called SD15192) [Ac-Ser-Arg-Leu-Glu-(cyclo5)Glu-Glu-Leu-(cyclo8)Lys-Arg-Arg-Leu-Thr-Glu-NH2] ?
class 1

Is it the case that Ac-SRLEEELRRRLTE-NH2 (Linear ALFA tag; also called SD15197) [Ac-Ser-Arg-Leu-Glu-Glu-Glu-Leu-Arg-Arg-Arg-Leu-Thr-Glu-NH2] has Bottom reaching or exceeding 0.1?
class 0

Assess whether reported Bottom for SRLEEELRKRLTE (lactam 5-9; not fully specified (N-terminus, C-terminus), also called SD15194) [Ac-Ser-Arg-Leu-Glu-(cyclo5)Glu-Glu-Leu-Arg-(cyclo9)Lys-Arg-Leu-Thr-Glu-NH2] sits at 0.1 or higher.
class 1

Continuing:
Check the entry Ac-SRLEEELRKRLTE-NH2 (lactam 9-13; SMILES CC(=O)N[C@@H](CO)C(=O)N[C@@H](CCCNC(=N)N)C(=O)N[C@@H](CC(C)C)C(=O)N[C@@H](CCC(=O)O)C(=O)N[C@@H](CCC(=O)O)C(=O)N[C@@H](CCC(=O)O)C(=O)N[C@@H](CC(C)C)C(=O)N[C@@H](CCCNC(=N)N)C(=O)N[C@H]1CCCCNC(=O)CC[C@@H](C(N)=O)NC(=O)[C@H]([C@@H](C)O)NC(=O)[C@H](CC(C)C)NC(=O)[C@H](CCCNC(=N)N)NC1=O, Cyclic ALFA tag; also called SD15193) [Ac-Ser-Arg-Leu-Glu-Glu-Glu-Leu-Arg-(cyclo9)Lys-Arg-Leu-Thr-(cyclo13)Glu-NH2] : does Bottom equal or exceed 0.1?
class 1

Given Ac-SRLEDELRKRLTE-NH2 (lactam 5-9; SMILES CC(=O)N[C@@H](CO)C(=O)N[C@@H](CCCNC(=N)N)C(=O)N[C@@H](CC(C)C)C(=O)N[C@@H](CCC(=O)O)C(=O)N[C@H]1CC(=O)NCCCC[C@@H](C(=O)N[C@@H](CCCNC(=N)N)C(=O)N[C@@H](CC(C)C)C(=O)N[C@H](C(=O)N[C@@H](CCC(=O)O)C(N)=O)[C@@H](C)O)NC(=O)[C@H](CCCNC(=N)N)NC(=O)[C@H](CC(C)C)NC(=O)[C@H](CCC(=O)O)NC1=O, Cyclic ALFA tag; also called SD15196) [Ac-Ser-Arg-Leu-Glu-(cyclo5)Asp-Glu-Leu-Arg-(cyclo9)Lys-Arg-Leu-Thr-Glu-NH2] , state whether its Bottom is at least 0.1.
class 0

Where do these numbers come from? They come from patent US20250154202A1.
